These data points were gathered from ChEMBL document CHEMBL3508693.

- testName: t1/2 of aliskiren hemifumarate following 2 week oral dosing of aliskiren hemifumarate at 50 mg.Kg-1 level studied on day 14 in female Callithrix jacchus
- Type: ADME, organism-based
- measurementContext: marmoset, plasma
readout: half-life

Which half-life is reported for this molecule? COCCCOc1cc(C[C@@H](C[C@H](N)[C@@H](O)C[C@H](C(=O)NCC(C)(C)C(N)=O)C(C)C)C(C)C)ccc1OC.COCCCOc1cc(C[C@@H](C[C@H](N)[C@@H](O)C[C@H](C(=O)NCC(C)(C)C(N)=O)C(C)C)C(C)C)ccc1OC.O=C(O)/C=C/C(=O)O [ALISKIREN FUMARATE]
8.19 h
